Assignment: determine reported Percent Effect for the given compounds.
- Test system: Wolbachia pipientis
- Assay Notes: Anti-Wolbachia Cell-Based Screen
- Type: functional
- Set-up: scale not given: in the data most compounds retested in dose-response had high values
- Measurement Context: 5 µM
The campaign covered roughly 48,000 compounds. About 13,000 (27%) showed an effect of 50% or more. The list shows a part of the results.
Give bare numbers, in %.

Could you tell me Percent Effect for each of these compounds? They are listed below.
1. Cc1nc(C(=O)N2CCCC(c3ccc4sc(N)nc4n3)C2)co1 (stereo not drawn)
2. COCc1noc(-c2ccc(N(C)Cc3ncccc3C)nc2)n1

### Response
130.6
79.04
